# target of assay: HLA-A*02:01 (Homo sapiens, UniProt P04439, D140Y/D185E/D98H/E176V/E277Q/G131W/G231S/I119V/I121R/I166T/I218V/L300P/L318F/N151K/N90K/P208A/P217A/Q86G/Q94H/R138H/R169H/T345S)
# protocol notes: MHC binding assay (UV-ligand exchange, beta2m ELISA, peptide exchange yield)
# condition details: binding to HLA-A*02:01 ranged by peptide exchange yield, β2m ELISA
result type: Peptide exchange (MHC class I binding score)

// solved cases for Peptide exchange (MHC class I binding score) follow
81 (SLLPALPKL; listed as Homo sapiens) [compound 81]: ++ (≥20% = ++)
61 (SLMGILLRI; listed as Homo sapiens) [compound 61]: ++ (≥20% = ++)
52 (SILDAVQRV; listed as Homo sapiens) [compound 52]: ++ (≥20% = ++)
64 (LLAASVALA; listed as Homo sapiens) [compound 64]: ++ (≥20% = ++)
113 (SLFDWNVKL; listed as Homo sapiens) [compound 113]: +++ (≥50 = +++)

Consider the record given below.
**Q:** Which Peptide exchange (MHC class I binding score) value belongs to 102 (LLFDVHTTL; listed as Homo sapiens) [compound 102] ?
**A:** +++ (≥50 = +++)

// provenance: patent US12059458B2
